Listing of recorded melting point by entry.
RECORDED_METRIC: melting point

>>> experimental_value("CN(C(=O)c1ccc2nonc2c1)C1CCC(F)(F)CC1")
"137 to 138 °C"
>>> experimental_value("O=c1[nH]c2ccccc2c(=O)n1CCCCN1CCC(OC(c2ccccc2)c2ccccc2)CC1")
"140 to 142 °C"
>>> experimental_value("COC(=O)[C@H](Cc1ccc(O)c(C2SCCS2)c1)NC(C)=O")
"97 to 99 °C"
>>> experimental_value("CCCCCCN(Cc1ccc2ccccc2c1)c1c(N[C@@H](Cc2ccccc2)C(=O)O)c(=O)c1=O")
"62 to 70 °C"
>>> experimental_value("CCNC(=O)c1c(Cl)cccc1[Si](C)(C)C")
"105 to 107 °C"
>>> experimental_value("CCCCCCCCCCCCCCCCCCOc1cc(O)cc(N(CC(=O)O)CC(=O)O)c1")
"143 to 146 °C"
>>> experimental_value("O=[N+]([O-])c1ccc2c(C3CCN(C[C@H](O)COc4cccc5[nH]ccc45)CC3)c[nH]c2c1")
"212 to 214 °C"
>>> experimental_value("CC(=O)OCc1c(Br)cccc1N1CCc2c(cc3n2CCCC3)C1=O")
"176 to 178 °C"
>>> experimental_value("CCC(C)c1cc(Cl)cc(Cl)c1OCC(=O)NCCCCNC(=O)OC(C)(C)C (stereo not given)")
"50 °C"
>>> experimental_value("CC(C)(C)OC(=O)n1cccc1-c1ccc2c(c1)C1(CCCCC1)C(=O)N2")
"177 °C"
>>> experimental_value("COc1nc2ncnn2c(N2CCC(C)CC2)c1-c1ccc(C)cc1F")
"201 °C"
>>> experimental_value("O=C1c2ccccc2-c2cc(Nc3nc(Nc4ccc5c(c4)-c4ccccc4C5=O)nc(-c4cccn4Cc4ccccc4)n3)ccc21")
"140 to 142 °C"
>>> experimental_value("CCN(CC)c1ccc(-c2cnc3[nH]cc(C(=O)C4(C)CCCCC4)c3n2)cc1")
"211 to 213 °C"
>>> experimental_value("O=Cc1nn(-c2ccc(O)cc2)c2c1CCCC2Cc1cccc2ccccc12 (stereo not given)")
"> 260 °C"
>>> experimental_value("CC(C)Cn1c(=O)n(C)c(=O)c2c(SCCCO)c(Cc3cccc(F)c3)sc21")
"99 to 100 °C"
>>> experimental_value("CN(C)C(=O)c1ccc2c(c1)C(=NNc1ccc(S(N)(=O)=O)cc1)C(=O)N2")
"> 230 °C"
>>> experimental_value("CN(C)CCNC(=O)c1nnc(-c2ccccc2)cc1-c1cccc([N+](=O)[O-])c1")
"157 to 158 °C"
>>> experimental_value("COC(=O)C(C)(C)OCC#Cc1cc(Cl)ccc1NS(=O)(=O)c1ccc2c(c1)OCCN2C")
"98 to 100 °C"
>>> experimental_value("COC(=O)C1CCCn2c(=O)[nH]c(=O)n21 (stereo not given)")
"215 to 216 °C"
>>> experimental_value("CCOc1cc(CO)ncc1C")
"99 to 101 °C"
>>> experimental_value("CCOC(=O)C1=C(C)NC(N)=C(C(=O)OCC)C1Cc1cccs1 (stereo not given)")
"170 °C"
>>> experimental_value("C[C@H](NC(CCC(=O)O)C(=O)O)C(=O)N1CCC[C@H]1C(=O)O (stereo not given in full)")
"140 to 160 °C"
>>> experimental_value("OCc1ccc(-c2ccc(-c3cn([C@H]4CN5CCC4CC5)nn3)cc2)cc1")
"250 °C"
>>> experimental_value("O=C(CN1C(=O)c2ccccc2C1=O)Nc1ccccc1Nc1ccccc1")
"191 °C"
>>> experimental_value("CN1C(=O)CC[C@]2(C)c3ccc(Sc4nc5ccccc5s4)cc3CC[C@@H]12")
"188 to 189 °C"
>>> experimental_value("COC(=O)C1=C(C)NC(C)=C(C(=O)OCCCCN(C)CCC(c2ccccc2)c2ccccc2)C1c1cccc([N+](=O)[O-])c1 (stereo not given)")
"91 to 103 °C"
>>> experimental_value("CC1(C)CC(=C(c2ccc(O)cc2)c2ccc(-c3cccc(CO)c3)cc2)CC(C)(C)C1")
"197 to 198 °C"
>>> experimental_value("O=C(O)c1ccccc1OCCN1CCC(c2cn(CC3CC3)c3ccccc23)CC1")
"145 to 147 °C"
>>> experimental_value("COc1ccc([C@@H]2Cc3cc(OC)ccc3NC(=O)[C@@H]2O)cc1")
"171 to 173 °C"
>>> experimental_value("Cn1ncc(C(=O)O)c1C(=O)Nc1ccn2nc(-c3ccnc(F)c3)nc2c1")
"> 290 °C"
>>> experimental_value("CS(=O)(=O)Nc1ccc(O)cn1")
"246 to 247 °C"
>>> experimental_value("O=C1CCC(N2C(=O)c3ccccc3C2=O)CC1")
"140 to 142 °C"
>>> experimental_value("C=CCOc1ncnc2nc[nH]c12")
"199 to 200 °C"
>>> experimental_value("COCCOC(=O)c1ccc(C(C(N)=O)C(C)c2ccccc2N2CCCCC2)cc1 (stereo not given)")
"155 to 157 °C"
>>> experimental_value("Cc1ncc2n1-c1ccc(Cl)cc1C(c1ccccc1F)N(N=O)C2 (stereo not given)")
"139 to 145 °C"

Just for reference, a melting point compilation (Tetko et al.; mined from patent text by program, amines drawn as free bases though some values may be those of a salt) is where these values come from.
